- Test system: GTL16
- RUN DESCRIPTION: GTL16 cell assay (EC50)
- Assay type: cell-based
- RUN PARAMETERS: Homo sapiens, GTL 16; Table 1
READOUT LABEL: EC50

// solved cases for EC50 follow
MOLECULE	SYSTEM	READOUT LABEL	MEAS VALUE
CNC(=O)c1cc(F)cc(-c2ccc3nnc(Cc4ccc5ncccc5c4)n3n2)c1	GTL16	EC50	100 to 1000 nM
CC(c1ccc2ncccc2c1)c1nnc2ccc(-c3cccc(F)c3)nn12 (stereo not drawn)	GTL16	EC50	< 100 nM
N#CCc1cccc(-c2ccc3nnc(Cc4ccc5ncccc5c4)n3n2)c1	GTL16	EC50	100 to 1000 nM

The molecule "CNC(=O)c1ccc(-c2ccc3nnc(Cc4ccc5ncccc5c4)n3n2)cc1" , tested on GTL16, showed EC50 of 100 to 1000 nM

The molecule "Cn1cc(-c2ccc3nnc(Cc4c(F)cc5ncccc5c4F)n3n2)cn1" , tested on GTL16, showed EC50 of < 100 nM

The molecule CC(c1ccc2ncsc2c1)c1nnc2ccc(-c3cnn(C)c3)nn12 (stereo not drawn) , tested on GTL16, showed EC50 of < 100 nM

The molecule "CNC(=O)c1ccc(-c2ccc3nnc(Cc4c(F)cc5ncccc5c4F)n3n2)cc1F" , tested on GTL16, showed EC50 of < 100 nM

The molecule "O=C(NCCO)c1ccc(-c2ccc3nnc(Cc4ccc5ncccc5c4)n3n2)cc1F" , tested on GTL16, showed EC50 of 100 to 1000 nM

The molecule "c1ccc(-c2ccc3nnc(Cc4ccc5nc[nH]c5c4)n3n2)cc1" , tested on GTL16, showed EC50 of 100 to 1000 nM
